These entries and their values trace back to PubChem BioAssay AID1963962.

Test system: 967376-340-R-J2-PDC multicell spheroid viability
Assay: Anticancer human tumor 967376-340-R-J2-PDC patient-derived colon adenocarcinoma cell line growth inhibition [PI3K]
Settings: second compound 0.1 µM; first compound 0.316 µM; stronger effect = lower value
Each entry below carries its reported viability, T/C.

compound	viability, T/C / %
CCN1CCN(Cc2ccc(Nc3ncc(F)c(-c4cc(F)c5nc(C)n(C(C)C)c5c4)n3)nc2)CC1 + CC(Nc1ccc2c(c1)OCCn1cc(N3C(=O)OCC3C(F)F)nc1-2)C(N)=O	47.3
C[C@@H](NC(=O)c1ncnc(N)c1Cl)c1ncc(C(=O)Nc2cc(C(F)(F)F)c(Cl)cn2)s1 + CC(Nc1ccc2c(c1)OCCn1cc(N3C(=O)OCC3C(F)F)nc1-2)C(N)=O	63.6
Cn1ncc(Cl)c1-c1cc(C(=O)NC(CN)Cc2cccc(F)c2)sc1Cl (stereo not given) + Cc1nc(NC(=O)N2CCCC2C(N)=O)sc1-c1ccnc(C(C)(C)C(F)(F)F)c1	76.5
CNC(=O)c1ccc(N2C(=S)N(c3ccc(C#N)c(C(F)(F)F)c3)C(=O)C2(C)C)cc1F + Cc1nc(NC(=O)N2CCCC2C(N)=O)sc1-c1ccnc(C(C)(C)C(F)(F)F)c1	86.8
CCCS(=O)(=O)Nc1ccc(F)c(C(=O)c2c[nH]c3ncc(-c4ccc(Cl)cc4)cc23)c1F + CC(Nc1ncnc2nc[nH]c12)c1cc2cccc(Cl)c2c(=O)n1-c1ccccc1	99.1

---

Tested on: 967376-340-R-J2-PDC multicell spheroid viability
Assay: Anticancer human tumor 967376-340-R-J2-PDC cell line growth inhibition [PI3K]
Details: compound 3.16 µM; stronger effect = lower value

compound	viability, T/C
CC(Cn1ccc(-c2ccc(C#N)c(Cl)c2)n1)NC(=O)c1cc(C(C)O)[nH]n1 (stereo not given)	103% [middle of 4 runs]
CC(C)NCC(C(=O)N1CCN(c2ncnc3c2C(C)CC3O)CC1)c1ccc(Cl)cc1 (stereo not given)	103% [middle of 4 runs]
CC1(C)CCC(Nc2ncc(C(F)(F)F)c(-c3c[nH]c4c(P(C)(C)=O)c(C#N)ccc34)n2)CN1 (stereo not given)	69.4% [middle of 4 runs]
CCCS(=O)(=O)Nc1ccc(F)c(C(=O)c2c[nH]c3ncc(-c4ccc(Cl)cc4)cc23)c1F	104% [middle of 4 runs]
C#Cc1c(F)ccc2cc(O)cc(-c3ncc4c(N5CC6CCC(C5)N6)nc(OCC56CCCN5CC(F)C6)nc4c3F)c12 (stereo not given)	91.7% [middle of 4 runs]

---

Quick list: viability, T/C per entry.
Test system: 967376-340-R-J2-PDC multicell spheroid viability
Assay: Anticancer human tumor 967376-340-R-J2-PDC cell line growth inhibition [PI3K];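 note: luminescence used as surrogate of cell viability; spheroids exposed to agents for 7 days before read-out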
Conditions: second compound 0.316 µM; first compound 0.0316 µM; stronger effect = lower value
Description: Combinatorial screen of targeted agents with the PI3K inhibitors inavolisib, alpelisib, duvelisib, and copanlisib in multi-cell type tumor spheroids A high-throughput screen of multi-cell type tumor spheroids was designed to identify active combinations of targeted small molecules and PI3K pathway inhibitors. […] Compounds. […] If the clinical Cmax for an agent had not been determined, the highest concentration tested was 10 microM. […]
quantity name: viability, T/C (%)

compound	observed
CCCS(=O)(=O)Nc1ccc(F)c(C(=O)c2c[nH]c3ncc(-c4ccc(Cl)cc4)cc23)c1F + COc1c(OCCCN2CCOCC2)ccc2c3n(c(=NC(=O)c4cnc(N)nc4)nc12)CCN3	39.4
CCCS(=O)(=O)Nc1ccc(F)c(C(=O)c2c[nH]c3ncc(-c4ccc(Cl)cc4)cc23)c1F + CC(Nc1ccc2c(c1)OCCn1cc(N3C(=O)OCC3C(F)F)nc1-2)C(N)=O	64.5
CC(=O)c1c(C)c2cnc(Nc3ccc(N4CCNCC4)cn3)nc2n(C2CCCC2)c1=O + Cc1nc(NC(=O)N2CCCC2C(N)=O)sc1-c1ccnc(C(C)(C)C(F)(F)F)c1	84.2
CCCS(=O)(=O)Nc1ccc(F)c(C(=O)c2c[nH]c3ncc(-c4ccc(Cl)cc4)cc23)c1F + Cc1nc(NC(=O)N2CCCC2C(N)=O)sc1-c1ccnc(C(C)(C)C(F)(F)F)c1	63
CCN1CCN(Cc2ccc(Nc3ncc(F)c(-c4cc(F)c5nc(C)n(C(C)C)c5c4)n3)nc2)CC1 + Cc1nc(NC(=O)N2CCCC2C(N)=O)sc1-c1ccnc(C(C)(C)C(F)(F)F)c1	64.2

---

Test system: 967376-340-R-J2-PDC multicell spheroid viability
Test: Anticancer human tumor 967376-340-R-J2-PDC cell line growth inhibition [PI3K];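 note: luminescence used as surrogate of cell viability; spheroids exposed to agents for 7 days before read-out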
Details: second compound 0.0316 µM; first compound 3.16 µM; stronger effect = lower value

molecule	study system	value units	viability, T/C
C=CC(=O)N1CCN(c2nc(=O)n(-c3c(C)ccnc3C(C)C)c3nc(-c4c(O)cccc4F)c(F)cc23)C(C)C1 (stereo not drawn) + Cc1nc(NC(=O)N2CCCC2C(N)=O)sc1-c1ccnc(C(C)(C)C(F)(F)F)c1	967376-340-R-J2-PDC multicell spheroid viability	%	91.7
CC1(C)CCC(Nc2ncc(C(F)(F)F)c(-c3c[nH]c4c(P(C)(C)=O)c(C#N)ccc34)n2)CN1 (stereo not drawn) + COc1c(OCCCN2CCOCC2)ccc2c3n(c(=NC(=O)c4cnc(N)nc4)nc12)CCN3	967376-340-R-J2-PDC multicell spheroid viability	%	49.4
CC(Cn1ccc(-c2ccc(C#N)c(Cl)c2)n1)NC(=O)c1cc(C(C)O)[nH]n1 (stereo not drawn) + COc1c(OCCCN2CCOCC2)ccc2c3n(c(=NC(=O)c4cnc(N)nc4)nc12)CCN3	967376-340-R-J2-PDC multicell spheroid viability	%	76.4

---

Test system: 967376-340-R-J2-PDC multicell spheroid viability
Experiment: Anticancer human tumor 967376-340-R-J2-PDC cell line growth inhibition [PI3K];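 note: luminescence used as surrogate of cell viability; spheroids exposed to agents for 7 days before read-out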
Details: second compound 0.1 µM; first compound 0.000316 µM; stronger effect = lower value
viability, T/C overview

compound	study system	value units	viability, T/C
CC(=O)c1c(C)c2cnc(Nc3ccc(N4CCNCC4)cn3)nc2n(C2CCCC2)c1=O + COc1c(OCCCN2CCOCC2)ccc2c3n(c(=NC(=O)c4cnc(N)nc4)nc12)CCN3	967376-340-R-J2-PDC multicell spheroid viability	%	64.2
CC(C)n1nc(-c2ccc3oc(N)nc3c2)c2c(N)ncnc21 + COc1c(OCCCN2CCOCC2)ccc2c3n(c(=NC(=O)c4cnc(N)nc4)nc12)CCN3	967376-340-R-J2-PDC multicell spheroid viability	%	58
CC(=O)c1c(C)c2cnc(Nc3ccc(N4CCNCC4)cn3)nc2n(C2CCCC2)c1=O + CC(Nc1ncnc2nc[nH]c12)c1cc2cccc(Cl)c2c(=O)n1-c1ccccc1	967376-340-R-J2-PDC multicell spheroid viability	%	114
Cn1ncnc1[C@H]1c2n[nH]c(=O)c3cc(F)cc(c23)N[C@@H]1c1ccc(F)cc1 + Cc1nc(NC(=O)N2CCCC2C(N)=O)sc1-c1ccnc(C(C)(C)C(F)(F)F)c1	967376-340-R-J2-PDC multicell spheroid viability	%	104
CC(C)n1nc(-c2ccc3oc(N)nc3c2)c2c(N)ncnc21 + CC(Nc1ccc2c(c1)OCCn1cc(N3C(=O)OCC3C(F)F)nc1-2)C(N)=O	967376-340-R-J2-PDC multicell spheroid viability	%	67.3

---

System: 967376-340-R-J2-PDC multicell spheroid viability
Test: Anticancer human tumor 967376-340-R-J2-PDC cell line growth inhibition [PI3K];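 note: luminescence used as surrogate of cell viability; spheroids exposed to agents for 7 days before read-out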
Details: second compound 0.0316 µM; first compound 0.1 µM; stronger effect = lower value
We begin with a simple list: items and their reported viability, T/C.

molecule	viability, T/C
CC(C)NCC(C(=O)N1CCN(c2ncnc3c2C(C)CC3O)CC1)c1ccc(Cl)cc1 (stereo unspecified) + Cc1nc(NC(=O)N2CCCC2C(N)=O)sc1-c1ccnc(C(C)(C)C(F)(F)F)c1	100%
C=CC(=O)N1CCN(c2nc(=O)n(-c3c(C)ccnc3C(C)C)c3nc(-c4c(O)cccc4F)c(F)cc23)C(C)C1 (stereo unspecified) + Cc1nc(NC(=O)N2CCCC2C(N)=O)sc1-c1ccnc(C(C)(C)C(F)(F)F)c1	85.2%
C[C@@H](NC(=O)c1ncnc(N)c1Cl)c1ncc(C(=O)Nc2cc(C(F)(F)F)c(Cl)cn2)s1 + Cc1nc(NC(=O)N2CCCC2C(N)=O)sc1-c1ccnc(C(C)(C)C(F)(F)F)c1	88.3%
CC(Cn1ccc(-c2ccc(C#N)c(Cl)c2)n1)NC(=O)c1cc(C(C)O)[nH]n1 (stereo unspecified) + CC(Nc1ncnc2nc[nH]c12)c1cc2cccc(Cl)c2c(=O)n1-c1ccccc1	87.5%
C[C@@H](NC(=O)c1ncnc(N)c1Cl)c1ncc(C(=O)Nc2cc(C(F)(F)F)c(Cl)cn2)s1 + CC(Nc1ncnc2nc[nH]c12)c1cc2cccc(Cl)c2c(=O)n1-c1ccccc1	129%
CNC(=O)c1ccc(N2C(=S)N(c3ccc(C#N)c(C(F)(F)F)c3)C(=O)C2(C)C)cc1F + CC(Nc1ncnc2nc[nH]c12)c1cc2cccc(Cl)c2c(=O)n1-c1ccccc1	88.7%
CC1(C)CCC(Nc2ncc(C(F)(F)F)c(-c3c[nH]c4c(P(C)(C)=O)c(C#N)ccc34)n2)CN1 (stereo unspecified) + Cc1nc(NC(=O)N2CCCC2C(N)=O)sc1-c1ccnc(C(C)(C)C(F)(F)F)c1	72.5%
CC(C)NCC(C(=O)N1CCN(c2ncnc3c2C(C)CC3O)CC1)c1ccc(Cl)cc1 (stereo unspecified) + CC(Nc1ncnc2nc[nH]c12)c1cc2cccc(Cl)c2c(=O)n1-c1ccccc1	80.4%
Cn1ncnc1[C@H]1c2n[nH]c(=O)c3cc(F)cc(c23)N[C@@H]1c1ccc(F)cc1 + Cc1nc(NC(=O)N2CCCC2C(N)=O)sc1-c1ccnc(C(C)(C)C(F)(F)F)c1	86.2%
Cn1ncc(Cl)c1-c1cc(C(=O)NC(CN)Cc2cccc(F)c2)sc1Cl (stereo unspecified) + CC(Nc1ncnc2nc[nH]c12)c1cc2cccc(Cl)c2c(=O)n1-c1ccccc1	95%
Cn1ncnc1[C@H]1c2n[nH]c(=O)c3cc(F)cc(c23)N[C@@H]1c1ccc(F)cc1 + COc1c(OCCCN2CCOCC2)ccc2c3n(c(=NC(=O)c4cnc(N)nc4)nc12)CCN3	73.4%
C#Cc1c(F)ccc2cc(O)cc(-c3ncc4c(N5CC6CCC(C5)N6)nc(OCC56CCCN5CC(F)C6)nc4c3F)c12 (stereo unspecified) + CC(Nc1ncnc2nc[nH]c12)c1cc2cccc(Cl)c2c(=O)n1-c1ccccc1	113%
C[C@@H](NC(=O)c1ncnc(N)c1Cl)c1ncc(C(=O)Nc2cc(C(F)(F)F)c(Cl)cn2)s1 + CC(Nc1ccc2c(c1)OCCn1cc(N3C(=O)OCC3C(F)F)nc1-2)C(N)=O	107%
CC(C)NCC(C(=O)N1CCN(c2ncnc3c2C(C)CC3O)CC1)c1ccc(Cl)cc1 (stereo unspecified) + COc1c(OCCCN2CCOCC2)ccc2c3n(c(=NC(=O)c4cnc(N)nc4)nc12)CCN3	61.5%
CC1(C)CCC(Nc2ncc(C(F)(F)F)c(-c3c[nH]c4c(P(C)(C)=O)c(C#N)ccc34)n2)CN1 (stereo unspecified) + COc1c(OCCCN2CCOCC2)ccc2c3n(c(=NC(=O)c4cnc(N)nc4)nc12)CCN3	84%
CC(=O)c1c(C)c2cnc(Nc3ccc(N4CCNCC4)cn3)nc2n(C2CCCC2)c1=O + COc1c(OCCCN2CCOCC2)ccc2c3n(c(=NC(=O)c4cnc(N)nc4)nc12)CCN3	74.3%
C#Cc1c(F)ccc2cc(O)cc(-c3ncc4c(N5CC6CCC(C5)N6)nc(OCC56CCCN5CC(F)C6)nc4c3F)c12 (stereo unspecified) + CC(Nc1ccc2c(c1)OCCn1cc(N3C(=O)OCC3C(F)F)nc1-2)C(N)=O	105%
CC(=O)c1c(C)c2cnc(Nc3ccc(N4CCNCC4)cn3)nc2n(C2CCCC2)c1=O + Cc1nc(NC(=O)N2CCCC2C(N)=O)sc1-c1ccnc(C(C)(C)C(F)(F)F)c1	77.3%
CNC(=O)c1ccc(N2C(=S)N(c3ccc(C#N)c(C(F)(F)F)c3)C(=O)C2(C)C)cc1F + CC(Nc1ccc2c(c1)OCCn1cc(N3C(=O)OCC3C(F)F)nc1-2)C(N)=O	107%
CC(Cn1ccc(-c2ccc(C#N)c(Cl)c2)n1)NC(=O)c1cc(C(C)O)[nH]n1 (stereo unspecified) + COc1c(OCCCN2CCOCC2)ccc2c3n(c(=NC(=O)c4cnc(N)nc4)nc12)CCN3	88.1%
CC(C)NCC(C(=O)N1CCN(c2ncnc3c2C(C)CC3O)CC1)c1ccc(Cl)cc1 (stereo unspecified) + CC(Nc1ccc2c(c1)OCCn1cc(N3C(=O)OCC3C(F)F)nc1-2)C(N)=O	90.4%
